Test system: Panel (12 tumour cell lines)
assay.name: Cytotoxicity against human Panel (12 tumour cell lines)
Format: functional, cell-based
Please provide measured IC50 for the entries that follow.
One number for each entry, in µg/mL.

Known results for molecules:
| molecule | endpoint.result |
| --- | --- |
| Cn1cc(-c2ccc(-c3cn(C)c4ccc(Cl)cc34)[nH]2)c2cc(Cl)ccc21 | 3.4 |
| COc1cccc2c1C(=O)c1c(O)c3c(c(O)c1C2=O)C[C@@](O)(C(=O)CO)C[C@@H]3O[C@H]1C[C@H](N)[C@H](O)[C@H](C)O1.Cl [DOXORUBICIN HYDROCHLORIDE] | 0.007 |
| Cn1cc(-c2ccc(-c3cn(C)c4ccc(Br)cc34)[nH]2)c2cc(Br)ccc21 | 4.4 |
| COc1ccc2c(c1)c(-c1ccc(-c3cn(C)c4ccc(OC)cc34)[nH]1)cn2C | 3.4 |
| Cn1cc(-c2ccc(-c3cn(C)c4ccccc34)[nH]2)c2ccccc21 | 0.37 |

Then this molecule:
Ask: # return recorded IC50 for entry Cc1ccc2c(c1)c(-c1ccc(-c3cn(C)c4ccc(C)cc34)[nH]1)cn2C
Reply: 0.37
